- target of assay: cruzipain (Trypanosoma cruzi, UniProt P25779)
- Construct: endogenous in cells; host or cells: T. cruzi epimastigotes, Tulahuen 2 strain
- Sequence (P25779 123-467): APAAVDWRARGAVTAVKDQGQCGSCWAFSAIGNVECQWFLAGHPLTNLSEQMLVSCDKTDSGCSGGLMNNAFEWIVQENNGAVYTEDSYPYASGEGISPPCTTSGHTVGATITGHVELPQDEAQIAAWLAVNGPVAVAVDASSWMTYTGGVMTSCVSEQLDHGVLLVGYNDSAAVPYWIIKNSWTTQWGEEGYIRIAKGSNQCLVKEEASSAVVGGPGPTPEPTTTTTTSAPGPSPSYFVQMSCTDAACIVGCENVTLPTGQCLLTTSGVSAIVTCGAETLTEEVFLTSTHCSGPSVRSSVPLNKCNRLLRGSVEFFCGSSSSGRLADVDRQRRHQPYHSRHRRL
- assay info: Inhibition of T. cruzi cruzipain (Z-Phe-Arg-AMC fluorogenic substrate)
- Type: biochemical
- condition label: percentage of enzymatic inhibition at 100 μM; read-out: Cruzipain % Inhib100
- Protocol: Initially, we tested the dithioles as inhibitors of the protease cruzipain from T. cruzi at a concentration of 100 μM. Cruzipain was purified to homogeneity from epimastigotes of the Tulahuen 2 strain by ConA-Sepharose affinity chromatography, as previously described. […] Then, the fluorogenic substrate Z-Phe-Arg-AMC (100 μM) was added and the fluorescence was measured during 10 min at intervals of 3 s (excitation at 350 nm and emission at 460 nm) using a Varioskan Flash Spectrophotometer. […]
In this section we review reported inhibition at 100 µM values for a set of compounds.
Write the number in % without appending the unit.

These recorded examples may help you get a feel for the data.
line notation	target of assay	inhibition at 100 µM / %
O=C(/C=C/c1ccc(C(=O)Oc2ccc(-c3cc(=S)ss3)cc2)cc1)c1ccccc1	cruzipain (Trypanosoma cruzi, UniProt P25779)	58
O=C(Oc1ccc(-c2cc(=S)ss2)cc1)c1ccc(/C=C/C(=O)c2ccccc2O)cc1	cruzipain (Trypanosoma cruzi, UniProt P25779)	77.9
COc1ccc(C2=C/C(=C(\SCC(=O)c3ccc4ccccc4c3)C(=O)c3ccc4ccccc4c3)SS2)cc1	cruzipain (Trypanosoma cruzi, UniProt P25779)	82.6

Specify inhibition at 100 µM for O=C(CS/C(C(=O)c1ccc2ccccc2c1)=C1\C=C(c2ccc(O)cc2)SS1)c1ccc2ccccc2c1 and stop.
66.5

Could you please provide reported inhibition at 100 µM for O=C(COc1ccc(-c2cc(=S)ss2)cc1)c1ccc2ccccc2c1 ? Thanks!
91.5

Give me measured inhibition at 100 µM, please, for this compound: O=C(C[S+]=c1cc(-c2ccc(O)cc2)ss1)c1ccc2ccccc2c1
77.1

Report inhibition at 100 µM, nothing else, for this compound: CC(=O)COc1ccc(-c2cc(=S)ss2)cc1
73.9

In one line, give reported inhibition at 100 µM of the entry COc1ccc(-c2cc(=[S+]CC(=O)c3ccc4ccccc4c3)ss2)cc1 .
90.2

Identify measured inhibition at 100 µM corresponding to CC(=O)COc1ccc(C2=C/C(=C(\SCC(C)=O)C(C)=O)SS2)cc1
91.3

Quickly give me recorded inhibition at 100 µM for O=C(COc1ccc(-c2cc(=S)ss2)cc1)c1ccccc1
96.3

Return the recorded inhibition at 100 µM value; entry: COc1ccc(C2=C/C(=C(\SCC(C)=O)C(C)=O)SS2)cc1
85.4

Identify inhibition at 100 µM associated with the compound Oc1ccc(-c2cc(=S)ss2)cc1
59.3

Return inhibition at 100 µM (reported value) for this compound: COc1ccc(-c2cc(=[S+]CC(C)=O)ss2)cc1
90.5

----------
- target of assay: Trypanosoma cruzi triosephosphate isomerase (TcTIM) (Trypanosoma cruzi)
- Construct: made in house; host or cells: Escherichia coli
- Sequence (P52270 whole entry): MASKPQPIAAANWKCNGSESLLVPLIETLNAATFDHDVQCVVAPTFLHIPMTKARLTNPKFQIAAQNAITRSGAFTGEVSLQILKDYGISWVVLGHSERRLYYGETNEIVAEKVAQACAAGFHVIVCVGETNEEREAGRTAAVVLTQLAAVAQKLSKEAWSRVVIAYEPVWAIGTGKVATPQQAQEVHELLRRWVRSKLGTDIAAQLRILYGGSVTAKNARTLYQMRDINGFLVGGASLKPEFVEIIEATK
- assay info: Inhibition of enzymatic activity of TcTIM
- Format: biochemical
- condition label: percentage of enzymatic inhibition at 200 μM; read-out: TcTIM % Inhib200
readout label: inhibition at 200 µM (%)
API: value field is a number in %; no unit string.

Report measured inhibition at 200 µM; entry is Oc1ccc(-c2cc(=S)ss2)cc1
71

Indicate its recorded inhibition at 200 µM; the compound in question is O=C(C[S+]=c1cc(-c2ccc(O)cc2)ss1)c1ccc2ccccc2c1
70

Annotate the compound COc1ccc(C2=C/C(=C(\SCC(C)=O)C(C)=O)SS2)cc1 with its measured inhibition at 200 µM.
86

Give the reported inhibition at 200 µM for this compound. O=C(CS/C(C(=O)c1ccc2ccccc2c1)=C1\C=C(c2ccc(O)cc2)SS1)c1ccc2ccccc2c1
70

Quote inhibition at 200 µM reported for COc1ccc(-c2cc(=S)ss2)cc1 please.
86
